Each recorded value in this set is attributed to patent US20220168268A1.

target: PD-1/PD-L1 (Homo sapiens, UniProt Q9NZQ7); construct: unspecified kit tag (tag1 or tag2, recognised by the detection antibodies); purchased CisBio 64CUS000C-1; test: Homogeneous Time-Resolved Fluorescence (HTRF) PD-1/PD-L1 binding assay; details: CisBio kit
Sequence (Q9NZQ7 19-238 limits assumed): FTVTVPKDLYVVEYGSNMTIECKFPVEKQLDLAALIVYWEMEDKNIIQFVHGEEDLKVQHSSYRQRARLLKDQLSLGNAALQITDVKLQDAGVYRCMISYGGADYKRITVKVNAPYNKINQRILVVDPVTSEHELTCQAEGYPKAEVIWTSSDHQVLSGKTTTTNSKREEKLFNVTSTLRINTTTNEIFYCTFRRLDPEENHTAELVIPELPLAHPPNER
measuredParameter: IC50 (nM)

Look over these answered cases.
>  <compound>
Cc1c(/C=C/c2cc(CNC(C)(CO)C(=O)O)ccc2C(F)(F)F)cccc1-c1ccc(F)cc1 (stereo not drawn)

>  <targetEntity>
PD-1/PD-L1 (Homo sapiens, UniProt Q9NZQ7)

>  <measuredParameter>
IC50

>  <measured>
320

$$$$
>  <compound>
Cc1c(/C=C/c2cc(CN[C@](C)(CO)C(=O)O)ccc2C(F)(F)F)cccc1-c1ccccc1

>  <targetEntity>
PD-1/PD-L1 (Homo sapiens, UniProt Q9NZQ7)

>  <measuredParameter>
IC50

>  <measured>
18

$$$$

(A) Cc1ccc(CNC(C)(CO)C(=O)O)cc1/C=C/c1cccc(-c2ccc(F)cc2)c1C (stereo not drawn)
(B) C[C@@](CO)(NCc1ccc(C(F)(F)F)c(/C=C/c2cccc(-c3ccccc3)c2F)c1)C(=O)O
(C) Cc1c(/C=C/c2cc(CNC(CO)C(=O)O)ccc2C(F)(F)F)cccc1-c1ccccc1F (stereo not drawn)
(D) Cc1c(/C=C/c2cc(CNC(C)(CO)C(=O)O)ccc2C(F)(F)F)cccc1-c1cccc(F)c1 (stereo not drawn)
Hey, can you sort those compounds up there by IC50, smallest first? Reply with the labels, ordered as the question asks.
C, D, B, A

====

target: PD-1/PD-L1 (Homo sapiens, UniProt Q9NZQ7); construct: unspecified kit tag (tag1 or tag2, recognised by the detection antibodies); assay: Homogeneous Time-Resolved Fluorescence (HTRF) PD-1/PD-L1 binding assay; details: CisBio kit
measuredParameter: IC50 (nM)

Examples from the recorded data:
>  <compound>
Cc1c(/C=C/c2cc(CN[C@@](C)(CO)C(=O)O)ccc2C(F)(F)F)cccc1-c1ccc2cn(C)nc2c1

>  <IC50 (nM)>
880

$$$$
>  <compound>
Cc1c(/C=C/c2cc(CNC(C)(CO)C(=O)O)ccc2C(F)(F)F)cccc1-c1ccccc1F (stereo not drawn)

>  <IC50 (nM)>
20

$$$$
>  <compound>
Cc1c(CCc2cc(CNC(C)C(=O)O)ccc2C(F)(F)F)cccc1-c1ccccc1 (stereo not drawn)

>  <IC50 (nM)>
44

$$$$
>  <compound>
Cc1c(/C=C/c2cc(C(C)NCC(=O)O)ccc2C(F)(F)F)cccc1-c1ccccc1 (stereo not drawn)

>  <IC50 (nM)>
24

$$$$
>  <compound>
Cc1ccc(CN[C@@](C)(CO)C(=O)O)cc1/C=C/c1cccc(-c2ccc3c(c2F)OCCO3)c1C [Compound 30]

>  <IC50 (nM)>
27

$$$$
>  <compound>
Cc1c(/C=C/c2cc(CN[C@@](C)(CO)C(=O)O)ccc2C(F)(F)F)cccc1-c1cnccn1

>  <IC50 (nM)>
540

$$$$
>  <compound>
COc1ccc(-c2cccc(/C=C/c3cc(CNC(C)(CO)C(=O)O)ccc3C)c2C)cc1 (stereo not drawn)

>  <IC50 (nM)>
3100

$$$$
>  <compound>
Cc1c(/C=C/c2cc(CN[C@@](C)(CO)C(=O)O)ccc2C(F)(F)F)cccc1-c1cn2ccnc2cn1

>  <IC50 (nM)>
1300

$$$$
>  <compound>
Cc1c(/C=C/c2cc(CNC(C)(CO)C(=O)O)ccc2F)cccc1-c1ccc2c(c1)OCCO2 (stereo not drawn)

>  <IC50 (nM)>
66

$$$$

(a) Cc1ccc(CN[C@@](C)(CO)C(=O)O)cc1/C=C/c1cccc(-c2ccccc2)c1C [Compound 31]
(b) Cc1c(/C=C/c2cc(CN[C@@H](CO)C(=O)O)ccc2C(F)(F)F)cccc1-c1ccc2c(c1F)OCCO2
(c) Cc1c(/C=C/c2cc(CNC(C)(CO)C(=O)O)ccc2C(F)(F)F)cccc1-c1ccccc1 (stereo not drawn)
(d) Cc1c(/C=C/c2cc(CN[C@@](C)(CO)C(=O)O)ccc2C(F)(F)F)cccc1-c1ccccn1
(e) Cc1nc2ccc(-c3cccc(/C=C/c4cc(CN[C@@](C)(CO)C(=O)O)ccc4C(F)(F)F)c3C)cc2o1
Ascending by IC50, please: list the compounds accordingly. Return the labels ranked in the requested order, please.
b, c, a, e, d
(b: 13 nM, c: 23 nM, a: 41 nM, e: 540 nM, d: 2200 nM)

====

Assay: Pharmacokinetic experiment in mice (iv and oral gavage)
Format: in vivo
Conditions: mouse, whole blood; CD1 male mice; tail vein 2 mg/kg and oral gavage 10 mg/kg
Excerpt: Glipizide (molecular formula was C21H27N5O4S, molecular weight was 445.5 g/mol, Analytical Reagent) purchased from Sigma-Aldrich (U.S.A.), was used as the internal standard for analysis. Methanol, acetonitrile and formic acid (HPLC grade) were purchased from Sigma-Aldrich (U.S.A.), and pure water was purchased from Hangzhou Wahaha Group Co., Ltd. (Hangzhou, China). Other chemical reagents were all analytical reagents. […]
measuredParameter: bioavailability (%)

The examples below pair each entry with its known result.
>  <compound>
Cc1c(/C=C/c2cc(CNC(CO)C(=O)O)ccc2C(F)(F)F)cccc1-c1ccccc1F (stereo not shown)

>  <measured>
16.1

$$$$
>  <compound>
COc1cc(/C=C/c2cccc(-c3ccccc3)c2C)cc(OC)c1CN[C@](C)(CO)C(=O)O

>  <measured>
4.42

$$$$
>  <compound>
Cc1c(/C=C/c2cc(CN[C@](C)(CO)C(=O)O)ccc2C(F)(F)F)cccc1-c1ccccc1

>  <measured>
52.3

$$$$
>  <compound>
Cc1c(/C=C/c2cc(CNC(C)(CO)C(=O)O)ccc2C(F)(F)F)cccc1-c1ccc2c(c1)OCCO2 (stereo not shown)

>  <measured>
5.98

$$$$
>  <compound>
COc1cc(/C=C/c2cccc(-c3ccccc3)c2C)cc(OC)c1CN[C@@](C)(CO)C(=O)O

>  <measured>
3.89

$$$$

(I) Cc1c(/C=C/c2cc(CN[C@@](C)(CO)C(=O)O)ccc2C(F)(F)F)cccc1-c1ccccc1
(II) COc1cc(/C=C/c2cccc(-c3ccccc3)c2C)cc(OC)c1CN[C@@H](CO)C(=O)O
Given the listed records, identify the one among I and II with higher bioavailability. Which one? Tell me its label.
I
(I: 38.2%, II: 3.08%)

====

biological target: PD-1/PD-L1 (Homo sapiens, UniProt Q9NZQ7); construct: unspecified kit tag (tag1 or tag2, recognised by the detection antibodies); purchased CisBio 64CUS000C-1; assay: Homogeneous Time-Resolved Fluorescence (HTRF) PD-1/PD-L1 binding assay; settings: CisBio kit
measuredParameter: IC50 (nM)

>  <molecule>
Cc1c(/C=C/c2cc(CNC(C)(CO)C(=O)O)cc3c2OCC3)cccc1-c1ccc2c(c1)OCCO2 (stereo not drawn)

>  <measuredParameter>
IC50

>  <measured>
430

$$$$
>  <molecule>
Cc1c(/C=C/c2cc(CNC(CO)C(=O)O)ccc2C(F)(F)F)cccc1-c1cccc(F)c1F (stereo not drawn)

>  <measuredParameter>
IC50

>  <measured>
14

$$$$
>  <molecule>
Cc1c(/C=C/c2cc(CNC(C)(CO)C(=O)O)ccc2C(F)(F)F)cccc1-c1cccc(F)c1F (stereo not drawn)

>  <measuredParameter>
IC50

>  <measured>
26

$$$$
>  <molecule>
Cc1c(/C=C/c2cc(CN[C@@](C)(CO)C(=O)O)ccc2C(F)(F)F)cccc1-c1ccc2ncoc2c1

>  <measuredParameter>
IC50

>  <measured>
1100

$$$$
>  <molecule>
Cc1ccc(CN[C@@](C)(CO)C(=O)O)cc1/C=C/c1cccc(-c2ccc3c(c2F)OCCO3)c1C [Compound 26]

>  <measuredParameter>
IC50

>  <measured>
20

$$$$
>  <molecule>
C[C@](CO)(NCc1ccc(C(F)(F)F)c(/C=C/c2cccc(-c3ccccc3)c2F)c1)C(=O)O

>  <measuredParameter>
IC50

>  <measured>
180

$$$$

(1) Cc1c(/C=C/c2cc(CNC(C)(CO)C(=O)O)ccc2C(F)(F)F)cccc1-c1ccc2c(c1F)OCCO2 (stereo not drawn)
(2) Cc1ccc(CN[C@@](C)(CO)C(=O)O)cc1/C=C/c1cccc(-c2ccccc2)c1C [Compound 28]
(3) Cc1c(CCc2cc(CNC(CO)C(=O)O)ccc2C(F)(F)F)cccc1-c1ccccc1 (stereo not drawn)
Parameters: sort_field (IC50), sort_dir (desc). # list labels per requested ordering
3, 2, 1
(3: 46 nM, 2: 29 nM, 1: 18 nM)

(P) Cc1c(/C=C/c2cc(CNC(CO)C(=O)O)ccc2F)cccc1-c1ccc2c(c1)OCCO2 (stereo not drawn)
(Q) Cc1c(/C=C/c2cc(CN[C@@](C)(CO)C(=O)O)ccc2C(F)(F)F)cccc1-c1cccnc1
(R) Cc1c(CCc2cc(CNC(C)(CO)C(=O)O)ccc2C(F)(F)F)cccc1-c1ccccc1 (stereo not drawn)
(S) Cc1ccc(CNC(C)(CO)C(=O)O)cc1/C=C/c1cccc(-c2ccccc2)c1C (stereo not drawn)
Sort the 4 molecules by IC50; largest first, smallest last. Put the labels in the requested order and list them out.
Q, R, S, P
